Provenance of the data: the nanobody polyreactivity screen of Harvey et al. (2022)

assay: yeast display, Sf9 membrane polyspecificity reagent, FACS + sequencing; frameworks hold sequencing errors
readout label: polyreactivity (PSR sort gate)

Recorded polyreactivity (PSR sort gate), per entry:
macromolecule_sequence=QVQLVESGGGLVQAGGSLRLRCAASGGIINWYAMGWYRQAQGKERELVAAISWRTTSTYYADSVKGRFTISRDTAKNTVYLQMNCLKPEDTAVYYCYASGEVLAAVVTYDYWGQGTQVTVSS observed_value="low polyreactivity"
macromolecule_sequence=QVQLVESGGGLVQAGGSLRLSCAASGYTFKYYTMGWSRQAPGKERELVAAITGGGSTYYADSVKGRFTISRDNAKNTVYLQMNSLKPEDTAVYYCAATVLYGYHKAYDYWGQGTQVTVSS observed_value="high polyreactivity"
macromolecule_sequence=QVQLVESGGGLVQAGGSLRLSCAASGFILEPNAMGWYRQAPGKERELVATISFSGGGTYYADSVKGRFTISRDNAKNTVYLQMNSLKPEDTAVYYCAADWYYYVWWYDYWGQGTQVTVSS observed_value="high polyreactivity"
macromolecule_sequence=QVQLVESGGGLVQAGGSLRLTSAGSGGILPKNAMGWSRQAPGKERELVADISTRGTSTYYADSVKGRFTISRDIAKNTVYLQMNSVKPEVTAVYYCANCRDYIGYDYWGQGSQVTVSS observed_value="low polyreactivity"
macromolecule_sequence=QVQLVESGGGLVPAGGSRRLSCAASGFTFGGYAMGWYRQAPGKETELVAAMRSSGDTTYDADSVKGRFTISRDNAKKTVNLQMNSLKPEDTAVYYCAARWGTYWGGLGGDPDIDYDDWGQGTQVTVSS observed_value="low polyreactivity"
macromolecule_sequence=QVQLVESGGGLVQAGGSLRLSCAASGRTFRYNAMGWYRQAPGKERELVAGITYYGGSTSYADSVKGRFTISRDNAKNTVYLQMNSLKPEDTEVYYCNVVYNYYGRFGSWGQGTQVTVSS observed_value="high polyreactivity"
macromolecule_sequence=QVQLVESGGGLVQAGGSLRLSCAASGRTFVANAMGWYRQAPGKEREFVAAITGGDSTYYADSVKGRFTISRDNAKNTVYLQMNSLKPEDTAVYYCAAPYNFWNFFDLIYVWDGYDYWGQGTQVTVSS observed_value="low polyreactivity"
macromolecule_sequence=QVQLVESGGGLVQAGGSLRLSCAASGFTFRTNAMGWYRQAPGKEREFVATITRRGGSTYYADSVKGRFTISRDNAKKTVYLQLNSLKPEDTAVYYCNAVFSSQEYEYWGQGTQVTVSS observed_value="high polyreactivity"
macromolecule_sequence=QVQLVESGGGLVQAGGSLRLSCAASGSIFHYNAMGWYRQAPGKERELVAAITTSGGSTYYADSVKGRFTISRDNAKNTVYLQMNSLKPEDTAVYYCAADLVWTRYFGYAPDYYIEFDYWGQGTQVTVSS observed_value="high polyreactivity"
macromolecule_sequence=QVQLVESGGGLVQAGGSLRLSCAASGSIFPSYARGWYRQAPGKERELVAAINWDGGSTFYADSVKGRFTISRDNAKNTVSLQMNSLKPEDTAVYYCAAPDNYGGVGGITFWRMDYWGQGTQVTVSS observed_value="low polyreactivity"

Request the reported polyreactivity (PSR sort gate) associated with `QVQLVESGGGLVQAGGSLRLSSAASGSIFRWYAMGWYRQAPGKERELVAAISRGGRTNYADSVKGRFTISRDNAKNTVYLQMNSLKPEDTAVYYCNKVLRNYSSTGVISVLTDYDYWGQGTQVTVSS` high polyreactivity

Entry `QVQLVESGGGLVQAGGSLRLSCAASGSIYGRNAMGWYRQAPGKERELFAAISSSGGRTYYADSVKGRFTISRDNAKNTVYLQMNSLKPEDTAVYYCAADASYARYYSQYDYWGQGTQVTVSS` please high polyreactivity

Entry `QVQLVESGGGLVQAGGSLRLSCAASGRIFSRYAMGWYRQAPGKERELVAVISRSGADTYYADSVKGRFTISRDNAKNTVYLQMNSLKPEDTAVYYCNAYSARRPHPMGYDYWGQGTQVTVSS` please high polyreactivity

Entry `QVQLVESGGGLVQAGGSLRLSCAASGSTFSYNAMGWYIQAPGKERELVAAISWSGGSTYYADSVKGRFTISRDYAKNTVYLQMNSLKPEDTAVYYCAADSPYGYYEGDYWGQGTQVTVSS` please low polyreactivity

Entry `QVQLVESGGGLVQAGGSLRLSCAASGRIFGPYTMGWYIQAPGKEREFVAAITRRGGTTYYADSVKGRFTISRDNAKNTVYLQMNSLKAEDTGVYYCDAVGQKRSLGYSWGQGTQVTVSS` please low polyreactivity

Entry `QVQLVESGGGLVQAGGSLRLSCAASGSIFWYNAMGWYRQAPGKERELVAAIDRSGGNTYYADSVKGRFTISRDNAKNTVYLQMNSLKPEDTAVYYCARRIGRTYRYVYWGQGTQVTVSS` please high polyreactivity

Entry `QVQLVESGGGLVQAGGSLRLSCAASGRTFNQYAMGWYRQAPGKERELVAAISRRTGRTYYADSVKGRFTISRDNAKNTVYLQMNSLKQEDTAVYYCAAGFTYLNYTPWYRFNYWGQGTQVTVSS` please high polyreactivity

---

experiment: yeast display, Sf9 membrane polyspecificity reagent, FACS + sequencing; frameworks hold sequencing errors
readout label: polyreactivity (PSR sort gate)

macromolecule_sequence=QVQLVESGGGLVQAGGSLRLSCAASGRIFYYNAMGWYRQAPGKERELVASITGSGGSTYYADSVKGRFTISRDNAKNTVYLQMNSLKPEDTAVYYCANREYLYPYYYVAKYDYWGQGTQVTVSS observed_value="low polyreactivity"
macromolecule_sequence=QVQLVESGGGLVQAGGSLRLSCAASGFTSSRNAMGWYRQAPGKERELVATISSGGDTYYADSVKGRFPISRDNAKTTVYLQMNSLKPEDTAVYYCNKDPLYAWGYDYWGQGTQVTVSS observed_value="low polyreactivity"
macromolecule_sequence=QVQLVESGGGLVQAGGSLRLSCAASGFTFEGYAMGWYRQAPGKERDLVAAISSNGGRTYYADSVKGRFTISRDNAKNPVYLQMNSLKPEDTAVYYCNADGYGDYSFLKYRFEYDYWGQGTQVTVSS observed_value="low polyreactivity"
macromolecule_sequence=QVQLVESGGGLVQAGGSLRLSCAASGRIFKSYAMGWYRQAPGKERELVATISISGGSTYYADSVKGRFTISRDNEKNTVYLQMNSLKPEDNAVYYCNVDFPITEYYYWGNGTQVTVSS observed_value="low polyreactivity"
macromolecule_sequence=QVQLVESGGGLVQAGGSLRLSCAASGFIFKRYTMGWYRQAPGKERELVAAISKSGSSTYYADSVKGRFTISRDNAKNTVYLQMHSLKPEDTAVYYCAAGWGWSSFGYGYWGQGTQVTVSS observed_value="high polyreactivity"

Request the reported polyreactivity (PSR sort gate) associated with `QVQLVESGGGLDQAGGSLRLSCAASGRTFEQYAMGWYRQAPGKVRELVAAISGSGGSTFYADSVKGRFTISRDNAKNTVYLQMNSLKPEDTAVYYCADKYDGSYVGLYWYSMNYCGQGTQVTVSS` low polyreactivity

Entry `QVQLVESGGGLVQAGGSLRLSCAASGSIFSNYAMGGYRQAPGKERELVAAISRNGGSTSYADSVKGRFTISRDNAKNTVYLQMNSLKPEDTAVYYCAKRYKTAQYYYWGQGTQVTVSS` please high polyreactivity

Entry `QVQLVESGGGLVQAGGSLRLSCAASGYIFGGYAMGWYRQAPGKERELVAAISRSGGSTYYADSVKGRFTISRDNAKNTVYLQMNSLKPEDTAVYYCAVRGYTLRYGYWGQGTQVTVSS` please high polyreactivity

Entry `QVQLVESGGGLVQAGGSLRLSCAASGSTLRGNAMGWYRQAPGKEREFVAAISSSGGRTYYADSVKGRFTISRDNAKNTVYLQMNSLKPEDTAVYYCNADPYNYSRRYRLRKYGYWGQGTQVTVSS` please high polyreactivity

Entry `QVQLVESGGGLVQAGGSLRLSCAASGRISHYNAMGWYRQAPGKERELVAAISSRGGSTYYADSVKGRFTISRDNAKNTVYLQMNSLKPEDTAVYYCADTAGYWGQGTQVTVSS` please high polyreactivity

Entry `QVQLVESGGGLVQAGGSLRLSCAASGLTFNDYAMGWYRQAPGKERELVAAISDIGGGTYYADSVKGRFTISRDNAKNTVYLQMNSLKPEETAVYYCAAEWQDWYGVDSWGQGTQVTVSS` please low polyreactivity

Entry `QVQLVESGGGLVQAGGGLRLSCAASGNTFRYYAMGWYIQAPGKERELVATITSGGRTYYADSVKGRFTISRDNAKNTVYLQMNSLKPEDTAVYYCNADYFQDRLDYWGQGTQVTVSS` please low polyreactivity

---

experiment: yeast display, Sf9 membrane polyspecificity reagent, FACS + sequencing; frameworks hold sequencing errors
readout label: polyreactivity (PSR sort gate)

macromolecule_sequence=QVQLVESGGGLVQAGGSLRLSCSASGYTFAWYAMGWYRQAPGKERELVAAITVSGGSTYYADSVKGRFTISRDNAKNTVYLQMNSLKPEDTAVYYCAADYAPLDLYQVSTVYSSGDYWGQGTQVTVSS readout_label="polyreactivity (PSR sort gate)" observed_value="low polyreactivity"
macromolecule_sequence=QVQLVESGGGLVQAGGSLRLSCAASGRTFVYKAMGWYRQSPGKERELVAALDGGGDRTYYADSVKGRFTISRDNAKNTVYLQMNSLKPEDTAVYYCARDPGDTYYYSYPEGDYWGEGTQVTVSS readout_label="polyreactivity (PSR sort gate)" observed_value="low polyreactivity"
